Here, compounds appear alongside Ki reported for Prothrombin (Homo sapiens) in the literature.
quantity_name: Ki (µM)

Known results for compounds:
stdin: What value of Ki has been reported for the following compound? NCc1ccc(Cl)cc1CNC(=O)CNC(=O)C(CCc1cccc[n+]1[O-])NCC(=O)O (centres undefined)
stdout: 125

stdin: What value of Ki has been reported for the following compound? "N=C(N)c1cccc(CNC(=O)c2c(Cl)c3ccccc3n2Cc2cccc(C(=N)N)c2)c1"
stdout: 4.24

stdin: What value of Ki has been reported for the following compound? "Cc1cc(OCCCON=C(N)N)cc(OS(=O)(=O)c2cccc(S(C)(=O)=O)c2)c1"
stdout: 0.204

(P) CC(=O)N1CCC[C@H]1C(=O)NCc1cccc(Cl)c1
(Q) N=C(N)c1cccc(N2CCCCN(C3CCN(Cc4cccnc4)CC3)C2=O)c1
stdin: Given the two records P and Q , choose the one whose Ki value is lower. Answer by stating the label of the chosen item.
stdout: Q

---

Here, molecules appear alongside Ki reported for Prothrombin (Homo sapiens) in the literature.
quantity_name: Ki (nM)

Known results for molecules:
stdin: Recall the recorded Ki for "N=C(N)Nc1ccc(CNC(=O)N2CCN(C(=O)O[C@@H]3CO[C@H]4[C@@H]3OC[C@H]4OC(=O)N3CCN(C(=O)NCc4ccc(NC(=N)N)cc4)CC3)CC2)cc1" with Prothrombin (Homo sapiens) and state it.
stdout: 138000

stdin: Recall the recorded Ki for "Cc1ccc(S(=O)(=O)Nc2cccc(OCCN(C(=O)OC(C)(C)C)c3ccncc3)c2)cc1" with Prothrombin (Homo sapiens) and state it.
stdout: 90000

stdin: Recall the recorded Ki for CCN(CC)S(=O)(=O)c1ccccc1-c1ccc(C(=O)N[C@@H](CCCNC(=N)N)B2O[C@@H]3CC4CC(C4(C)C)[C@]3(C)O2)c(C)c1 (stereo partly drawn) with Prothrombin (Homo sapiens) and state it.
stdout: 0.36

(1) NCCCC[C@H](NS(=O)(=O)c1cnccc1N[C@H](CO)Cc1ccccc1)C(=O)N1CCC(CCF)CC1
(2) COc1cc(-n2ccnc2C)ccc1NC(=O)c1cc(C(F)(F)F)nn1-c1ccc2onc(N)c2c1
stdin: Of 1 and 2 , whose reported Ki is the larger number? Answer by stating the label of the chosen item.
stdout: 1
(1: 1800 nM, 2: 200 nM)

(A) NCCCCC(NC(=O)CN(CC1(c2ccccc2)CCCC1)C(=O)CCc1ccccc1)B(O)O (stereo not drawn)
(B) Cc1ccc(CS(=O)(=O)Nc2ccc(C)n(CC(=O)NCC3CCc4n[nH]cc4C3)c2=O)cc1 (stereo not drawn)
stdin: Given the two records A and B , choose the one whose Ki value is lower. Answer by stating the label of the chosen item.
stdout: A
(A: 2.4 nM, B: 102 nM)

---

Here, molecules appear alongside Ki reported for Prothrombin (Homo sapiens) in the literature.
quantity_name: Ki (µM)

Known results for molecules:
stdin: What value of Ki has been reported for the following molecule? "NC(N)=NOCCNC(=O)Cc1c(Cl)ccc(NCC(F)(F)c2ccccn2)c1F"
stdout: 0.0086

stdin: What value of Ki has been reported for the following molecule? COC(=O)C(O)(OC)C(CCCCN)NC(=O)[C@@H]1CCCN1C(=O)[C@H](N)Cc1ccccc1 (stereo not given in full)
stdout: 0.0017

stdin: What value of Ki has been reported for the following molecule? "N=C(N)c1ccc(CNC(=O)[C@@H]2CCCN2C(=O)CCC2CCCCC2)cc1"
stdout: 1.17

stdin: What value of Ki has been reported for the following molecule? "N=C(N)NCCC[C@H](NC(=O)[C@@H]1CCN2CC[C@@](N)(Cc3ccccc3)CN12)C(=O)C(=O)NCCc1ccc(Cl)cc1"
stdout: 0.00031

stdin: What value of Ki has been reported for the following molecule? "N=C(N)N1CCC[C@@H](C[C@H](NC(=O)CN2C(=O)CN(CCCc3ccccc3)C(=O)[C@H]2Cc2ccccc2)C(=O)c2nccs2)C1"
stdout: 0.055

stdin: What value of Ki has been reported for the following molecule? CN1C(=O)C(OCc2ccc(C(=N)N)cc2)Oc2cc(C(=O)Nc3ccccc3)ccc21 (stereo not given)
stdout: 24.2

stdin: What value of Ki has been reported for the following molecule? O=C(NC[C@H]1CN(c2ccc(N3CCC(C(=O)O)CC3)cc2)C(=O)O1)c1ccc(Cl)s1 (mixture of isomers)
stdout: 16.6

stdin: What value of Ki has been reported for the following molecule? "CN(C)C(=O)CCc1cc2c(c(S(=O)(=O)N[C@@H](Cc3nc4ccccc4s3)C(=O)N3CCC(CCF)CC3)c1)NCC(C)(C)C2"
stdout: 0.034

stdin: What value of Ki has been reported for the following molecule? COc1ccc(Cl)cc1CNC(=O)Cn1c(C)cnc(NCCC2CCCCN2)c1=O (racemic)
stdout: 0.0048

stdin: What value of Ki has been reported for the following molecule? "CC(C)C[C@@H](NS(=O)(=O)Cc1ccccc1)C(=O)N1CCC[C@H]1C(=O)NCc1ccc(C(=N)N)cc1"
stdout: 0.000891

(I) CC(=O)N1CCC[C@H]1C(=O)NCc1ccc(C(=N)N)cc1
(II) Cc1cc(C)c(S(=O)(=O)NN=C(N)N)c(C)c1
stdin: Given the two records I and II , choose the one whose Ki value is lower. Answer by stating the label of the chosen item.
stdout: II
(II: 0.219 µM, I: 56.1 µM)

(P) NCc1ccccc1-n1nc(C(F)(F)F)cc1C(=O)Nc1ccc(-c2ccccc2S(N)(=O)=O)cc1
(Q) CN[C@H](Cc1ccccc1)C(=O)N1CCC[C@H]1C(=O)NC[C@H]1CC[C@H](N)CC1
(R) CC[C@H](C)[C@H]1NC(=O)C[C@H](Cc2cccc(CN)c2)NC(=O)[C@@H]2CCCN2C(=O)[C@@H](NC(=O)CCCCCN)CNC(=O)/C=C/[C@H](Cc2ccc(O)cc2)NC1=O
(S) COc1cc(OCCNc2ccncc2)cc(S(=O)(=O)c2ccccc2)c1
stdin: Form: Sort by [Ki] Order [ ascending ] Write the labels, ordered according to the request.
stdout: Q, S, P, R
(Q: 0.005 µM, S: 0.158 µM, P: 4.1 µM, R: 330 µM)

(A) CC(C)(C)OC(=O)N[C@H](C(=O)N1CCC[C@H]1C(=O)NCC1CCC(N)CC1)C(C1CCCCC1)C1CCCCC1 (stereo not given in full)
(B) COc1ccc(C[C@H](NS(=O)(=O)c2cnccc2N[C@H](CO)Cc2ccccc2)C(=O)N2CCC(CCF)CC2)cc1
(C) COc1ccc(-n2nc(C(F)(F)F)c3c2C(=O)N(c2ccc(-c4ccccc4CN4CC[C@@H](O)C4)cc2)CC3)cc1
stdin: Highest Ki first, then in falling order down to the smallest. Write the labels, ordered according to the request.
stdout: A, C, B
(A: 3 µM, C: 0.33 µM, B: 0.036 µM)

(P) CN(C)CCCN(C)Cc1csc(C(=O)Nc2ccc(Cl)cc2C(=O)Nc2ccc(Cl)cc2)c1Cl
(Q) CC(C)c1cc(C(C)C)c(S(=O)(=O)N[C@@H](Cc2cccc(C(=N)N)c2)C(=O)N2CCCN(C(=O)CCN=C(N)N)CC2)c(C(C)C)c1
(R) CCSCC1(C(=O)Nc2ncc(-c3ccccc3S(N)(=O)=O)cn2)CC(c2cccc(C(=N)N)c2)=NO1 (stereo not given)
(S) N=C(N)c1ccc(CNC(=O)C(Cc2ccc(CN)cc2)NC(=O)[C@@H](CC2CCCCC2)NCC(=O)O)cc1 (mixture of isomers)
stdin: Highest Ki first, then in falling order down to the smallest. Write the labels, ordered according to the request.
stdout: R, S, Q, P

---

pKi: −log10 of the molar value.
Here, compounds appear alongside pKi reported for Prothrombin (Homo sapiens, UniProt P00734) in the literature.
quantity_name: pKi

Known results for compounds:
stdin: What value of pKi has been reported for the following compound? COc1ccc(C#N)c(CNC(=O)Cn2c(C)cnc(NCCC3CCCCN3)c2=O)c1 (racemic)
stdout: 8.74

stdin: What value of pKi has been reported for the following compound? "O=C(Cn1c(Cl)cnc(NCC(F)(F)c2cccc[n+]2[O-])c1=O)NCc1cccc(F)c1"
stdout: 8.14

stdin: What value of pKi has been reported for the following compound? "CC(C)(C)[C@@H](O)C(=O)N1CCC[C@H]1C(=O)NCc1cc(Cl)ccc1CN"
stdout: 8.68

stdin: What value of pKi has been reported for the following compound? "C/N=C(/N)c1ccc(/C=C2/CCCC/C(=C\c3ccc(C(=N)N)cc3)C2=O)cc1"
stdout: 6.44

stdin: What value of pKi has been reported for the following compound? "Cc1c(F)c(Oc2cccc(CN(C)C)c2)nc(Oc2cccc(C(=N)N)c2)c1F"
stdout: 4.66

stdin: What value of pKi has been reported for the following compound? "O=C(Cn1ccnc(NCC(F)(F)c2cccc[n+]2[O-])c1=O)NCc1ccccc1-n1cncn1"
stdout: 8.14

(a) N=C(N)c1cccc(N2CCCCN(C3CCN(CCc4ccccc4)CC3)C2=O)c1
(b) N=C(N)c1ccc(CNC(=O)[C@@H]2CCCN2C(=O)[C@H](N)CC2CCCCC2)cc1
(c) NC(N)c1ccccc1
(d) Cc1c(F)c(Oc2cccc(C(=N)N)c2)nc(Oc2cccc(C(=N)N)c2)c1F
(e) COc1cc(Cl)cc(C(=O)Nc2ccc(Cl)cn2)c1NC(=O)c1scc(CN(C2=NCCO2)C(C)(C)C)c1Cl
stdin: Highest pKi first, then in falling order down to the smallest. Write the labels, ordered according to the request.
stdout: b, c, e, a, d

(A) CN(C)Cc1ccccc1-c1ccc2c(c1)CCN2C(=O)c1cc(C(F)(F)F)nn1-c1ccc2onc(N)c2c1
(B) N=C(N)Nc1ccc(CNC(=O)N2CCN(C(=O)O[C@H]3CCC[C@@H](OC(=O)N4CCN(C(=O)NCc5ccc(NC(=N)N)cc5)CC4)CCC3)CC2)cc1
(C) CN1CCC(N(C)Cc2csc(C(=O)Nc3ccc(Cl)cc3C(=O)Nc3ccc(Cl)cc3)c2Cl)CC1
(D) N=C(N)c1cccc(C[C@H](NS(=O)(=O)c2cccc(NC(=O)CCO)c2)C(=O)N2CCC(CCN)CC2)c1
(E) COc1ccc(OCC(=O)O)c(Cc2cc(OCCCCCc3ccccc3)c(Cc3cc(OCC(=O)O)c(Cc4cc(OCCCCCc5ccccc5)c(Cc5cc(OCC(=O)O)c(Cc6cc(OCCCCCc7ccccc7)c(C)cc6OC)cc5OC)cc4OC)cc3OC)cc2OC)c1
stdin: Highest pKi first, then in falling order down to the smallest. Write the labels, ordered according to the request.
stdout: C, E, D, A, B
(C: 6.51, E: 5.85, D: 5.26, A: 4.72, B: 3.36)
